target.under.test: 3-oxo-5-alpha-steroid 4-dehydrogenase 1 (Rattus norvegicus) (UniProt P24008)
Sequence (P24008 whole entry): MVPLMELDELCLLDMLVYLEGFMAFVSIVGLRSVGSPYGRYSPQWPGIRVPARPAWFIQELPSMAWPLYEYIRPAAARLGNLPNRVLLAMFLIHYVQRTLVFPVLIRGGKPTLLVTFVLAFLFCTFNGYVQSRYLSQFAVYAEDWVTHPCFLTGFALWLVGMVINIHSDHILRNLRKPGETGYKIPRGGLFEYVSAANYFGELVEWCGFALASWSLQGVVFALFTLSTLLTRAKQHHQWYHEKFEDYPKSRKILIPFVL
test.protocol: In vitro inhibitory activity against rat prostatic 5-alpha-reductase (150 ng/tube)
Kindly supply the reported inhibition values for the records listed here.
Hi, when you answer, please include the unit after the number. Thanks!

Recorded inhibition (compound CCCCCCCCCC[C@H]1CCC2C3CCC4N(C)C(=O)CCC4(C)C3CCC21C (some centres undefined) ): 7%

Recorded inhibition (compound CC(C(=O)O)[C@H]1CC[C@H]2[C@@H]3CCC4N(C)C(=O)CC[C@]4(C)[C@H]3CC[C@]12C (some centres undefined) ): 96%

Recorded inhibition (compound CCN(CC)C(=O)[C@H]1CCC2C3CCC4N(NC)C(=O)CCC4(C)C3CCC21C (some centres undefined) ): 24%

Recorded inhibition (compound COC(=O)[C@H]1CCC2C3CCC4N(C)C(=O)CCC4(C)C3CCC21C (some centres undefined) ): 96%

Recorded inhibition (compound CCN(CC)C(=O)C[C@H]1CC[C@H]2[C@@H]3CCC4N(C)C(=O)CC[C@]4(C)[C@H]3CC[C@]12C (some centres undefined) ): 97%

Recorded inhibition (compound CCN(CC)C(=O)CCC(C)[C@H]1CC[C@H]2[C@@H]3CCC4N(C)C(=O)CC[C@]4(C)[C@H]3CC[C@]12C (some centres undefined) ): 100%

Recorded inhibition (compound CC(=O)O[C@H]1CCC2C3CC[C@H]4CC(=O)NCCC4(C)C3CCC21C (some centres undefined) ): 0%

Recorded inhibition (compound CCN(CC)C(=O)[C@H]1CCC2C3CCC4N(CCO)C(=O)CCC4(C)C3CCC21C (some centres undefined) ): 0%

Recorded inhibition (compound CCN(CC)C(=O)[C@H]1CC[C@H]2[C@@H]3CC[C@H]4N(C)C(=O)C=C[C@]4(C)[C@H]3CC[C@]12C ): 63%

###

target.under.test: 3-oxo-5-alpha-steroid 4-dehydrogenase 1 (Rattus norvegicus) (UniProt P24008)
test.protocol: In vitro inhibitory activity against rat prostatic 5-alpha-reductase (150 ng/tube)
Kindly supply the reported inhibition values for the records listed here.
Hi, when you answer, please include the unit after the number. Thanks!

Recorded inhibition (compound CC(O)[C@H]1CC[C@H]2[C@@H]3CCC4N(C)C(=O)CC[C@]4(C)[C@H]3CC[C@]12C (stereo partly drawn) ): 100%

Recorded inhibition (compound CCN(CC)C(=O)[C@H]1CC[C@H]2[C@@H]3CC[C@@H]4N(C)C(=O)CC[C@]4(C)[C@H]3CC[C@]12C ): 7%

Recorded inhibition (compound CCOC(=O)C[C@H]1CC[C@H]2[C@@H]3CC[C@H]4N(C)C(=O)CC[C@]4(C)[C@H]3CC[C@]12C ): 88%

Recorded inhibition (compound CC(=O)[C@H]1CC[C@H]2[C@@H]3CC[C@H]4CS(=O)(=O)C[C@]4(C)[C@H]3CC[C@]12C (stereo in doubt; 43) ): 13%

Recorded inhibition (compound CCN(CC)C(=O)[C@H]1CCC2C3CC[C@H]4N(C)C(=O)[C@@H](C)CC4(C)C3CCC21C (stereo partly drawn) ): 99%

Recorded inhibition (compound CCN(CC)C(=O)[C@H]1CCC2C3CCC4N(c5ccccc5)C(=O)CCC4(C)C3CCC21C (stereo partly drawn) ): 5%

Recorded inhibition (compound CC(=O)O[C@H]1CCC2C3CC[C@H]4NC(=O)CCCC4(C)C3CCC21C (stereo partly drawn) ): 94%

Recorded inhibition (compound CCN(CC)C(=O)[C@H]1CCC2C3CCC4N(C)C(=O)CC4(C)C3CCC21C (stereo partly drawn) ): 7%

Recorded inhibition (compound CCN(CC)C(=O)[C@H]1CC[C@H]2[C@@H]3CC[C@H]4N(C)C(=O)CC[C@]4(C)[C@H]3CC[C@]12C ): 99%

Recorded inhibition (compound CCN(CC)C(=O)[C@H]1CC[C@H]2[C@@H]3CC[C@H]4NC(=O)C=C[C@]4(C)[C@H]3CC[C@]12C ): 74%

Recorded inhibition (compound CCN(CC)C(=O)[C@H]1CCC2C3CCC4N(C)C(=O)C(=O)CC4(C)C3CCC21C (stereo partly drawn) ): 78%

Recorded inhibition (compound CCN(CC)C(=O)[C@H]1CCC2C3CCC4N(C)C(=O)/C(=C/O)CC4(C)C3CCC21C (stereo partly drawn) ): 48%

Recorded inhibition (compound CN1C(=O)CC[C@@]2(C)C1CC[C@@H]1[C@@H]2CC[C@@]2(C)[C@H]1CC[C@@]21CCCO1 (stereo partly drawn) ): 81%

Recorded inhibition (compound COC(=O)CCC(C)[C@H]1CC[C@H]2[C@@H]3CCC4N(C)C(=O)CC[C@]4(C)[C@H]3CC[C@]12C (stereo partly drawn) ): 84%

Recorded inhibition (compound CC(=O)N[C@H]1CCC2C3CCC4N(C)C(=O)CCC4(C)C3CCC21C (stereo partly drawn) ): 76%

Recorded inhibition (compound CC(C)N(C(=O)[C@H]1CC[C@H]2[C@@H]3CCC4N(C)C(=O)CC[C@]4(C)[C@H]3CC[C@]12C)C(C)C (stereo partly drawn) ): 100%

Recorded inhibition (compound COC(=O)[C@H]1CCC2C3CC[C@H]4CC(=O)OCC4(C)C3CCC21C (stereo partly drawn) ): 0%

Recorded inhibition (compound CC(=O)[C@H]1CCC2C3CCC4NC(=O)CCC4(C)C3CCC21C (stereo partly drawn) ): 100%

###

target.under.test: 3-oxo-5-alpha-steroid 4-dehydrogenase 1 (Rattus norvegicus) (UniProt P24008)
test.protocol: In vitro inhibitory activity against rat prostatic 5-alpha-reductase (150 ng/tube)
Short version: inhibition at least 50% is 1, less is 0.

Task item: Form field: inhibition at least 50%? Entry: CN1C(=O)CCC2(C)C3CCC4(C)/C(=C/C(=O)O)CCC4C3CCC12 (configuration not stated)
Reply: 1

Task item: Form field: inhibition at least 50%? Entry: CN1C(=O)CC[C@@]2(C)C1CC[C@H]1[C@@H]3CC[C@H](O)[C@@]3(C)CC[C@@H]12 (some centres not stated)
Reply: 1

Task item: Form field: inhibition at least 50%? Entry: CC(=O)[C@H]1CC[C@H]2[C@@H]3CC[C@H]4CS(=O)(=O)C[C@]4(C)[C@H]3CC[C@]12C (stereo in doubt; 44)
Reply: 0

Task item: Form field: inhibition at least 50%? Entry: CCN(CC)C(=O)[C@H]1CCC2C3CCC4N(C)C(=N)CCC4(C)C3CCC21C (some centres not stated)
Reply: 0

Task item: Form field: inhibition at least 50%? Entry: CC(=O)[C@H]1CCC2C3CCC4N(C)C(=O)CCC4(C)C3CCC21C (some centres not stated)
Reply: 1

Task item: Form field: inhibition at least 50%? Entry: CN1C(=O)CCC2(C)C3CCC4(C)C(CC[C@@H]4C(N)=O)C3CCC12 (some centres not stated)
Reply: 1

Task item: Form field: inhibition at least 50%? Entry: CCN(CC)C(=O)C(C)[C@H]1CC[C@H]2[C@@H]3CCC4N(C)C(=O)CC[C@]4(C)[C@H]3CC[C@]12C (some centres not stated)
Reply: 1

Task item: Form field: inhibition at least 50%? Entry: CC(=O)O[C@H]1CCC2C3CC[C@H]4CNC(=O)CC4(C)C3CCC21C (some centres not stated)
Reply: 0

Task item: Form field: inhibition at least 50%? Entry: CN1C(=O)CCC2(C)C3CCC4(C)C(CC[C@@H]4CN)C3CCC12 (some centres not stated)
Reply: 1

Task item: Form field: inhibition at least 50%? Entry: CC(=O)O[C@H]1CCC2C3CC[C@H]4CNC(=O)CCC4(C)C3CCC21C (some centres not stated)
Reply: 0

Task item: Form field: inhibition at least 50%? Entry: CC12CCC(=O)NC1CCC1C2CCC2(C)C1CC[C@@H]2O (some centres not stated)
Reply: 1

Task item: Form field: inhibition at least 50%? Entry: CCNC(=O)[C@H]1CCC2C3CCC4N(C)C(=O)CCC4(C)C3CCC21C (some centres not stated)
Reply: 1

Task item: Form field: inhibition at least 50%? Entry: CC(O)[C@@]1(O)CC[C@H]2[C@@H]3CCC4N(C)C(=O)CC[C@]4(C)[C@H]3CC[C@@]21C (some centres not stated)
Reply: 1

Task item: Form field: inhibition at least 50%? Entry: CCCCCCCCNC(=O)[C@H]1CCC2C3CCC4N(C)C(=O)CCC4(C)C3CCC21C (some centres not stated)
Reply: 1

Task item: Form field: inhibition at least 50%? Entry: CC12CCNC(=O)C1CCC1C2CCC2(C)C1CC[C@@H]2O (some centres not stated)
Reply: 0

Task item: Form field: inhibition at least 50%? Entry: CCN(CC)C(=O)[C@H]1CCC2C3CCC4N(C)C(=O)C5OC5C4(C)C3CCC21C (some centres not stated)
Reply: 0

###

Kindly supply the reported inhibition values for the records listed here.
target.under.test: 3-oxo-5-alpha-steroid 4-dehydrogenase 1 (Rattus norvegicus)
test.protocol: In vitro inhibitory activity against rat prostatic 5-alpha-reductase (150 ng/tube)
Hi, when you answer, please include the unit after the number. Thanks!

Recorded inhibition (compound CN1C(=O)CC[C@@]2(C)C1CC[C@H]1[C@@H]3CC[C@H](C(=O)O)[C@@]3(C)CC[C@@H]12 (stereo partly drawn) ): 90%

Recorded inhibition (compound CC(CCC(=O)O)[C@H]1CC[C@H]2[C@@H]3CCC4N(C)C(=O)CC[C@]4(C)[C@H]3CC[C@]12C (stereo partly drawn) ): 88%

Recorded inhibition (compound CCN(CC)C(=O)[C@H]1CCC2C3CC[C@H]4N(C)C(=O)[C@H](O)CC4(C)C3CCC21C (stereo partly drawn) ): 46%

Recorded inhibition (compound CCN(CC)C(=O)[C@H]1CCC2C3CCC4N(C)/C(=N\C)CCC4(C)C3CCC21C (stereo partly drawn) ): 49%

Recorded inhibition (compound CC(=O)O[C@H]1CCC2C3CC[C@H]4CN(C(C)=O)CCC4(C)C3CCC21C (stereo partly drawn) ): 33%

Recorded inhibition (compound CCN1C(=O)CC[C@@]2(C)C1CC[C@@H]1[C@@H]2CC[C@@]2(C)[C@H]1CC[C@@]21CCCO1 (stereo partly drawn) ): 27%

Recorded inhibition (compound C[C@]12CCC(=O)NC1CC[C@@H]1[C@@H]2CC[C@@]2(C)[C@H]1CC[C@@]21CCCO1 (stereo partly drawn) ): 68%

Recorded inhibition (compound CC(CO)[C@H]1CC[C@H]2[C@@H]3CCC4N(C)C(=O)CC[C@]4(C)[C@H]3CC[C@]12C (stereo partly drawn) ): 100%
